system: NCI-H1703 cells; experiment: GLS Cell Proliferation Assay (NCI-H1703 cell proliferation); type: cell-based; settings: Homo sapiens, NCI-H1703, 120 h, NCI-H1703 cells, 5 days; read-out: Assay c) Prolif Mean IC50
quantityMeasured: IC50 (nM)

[I] CO[C@H](C(=O)Nc1nnc(N[C@@H]2CCN(c3cccnn3)C2)s1)c1cccc(N2CC(F)C2)c1 (single isomer, unassigned) [Example 1(a)]
[II] COC(C(=O)Nc1nnc(N[C@@H]2CCN(c3cccnn3)C2)s1)c1cccc(C2COC2)c1 (single isomer, unassigned) [Example 18(a)]
[III] COCC(C(=O)Nc1nnc(N[C@@H]2CCN(c3ccc(C)nn3)C2)s1)c1ccccc1 (single isomer, unassigned) [Example 45(a)]
Incoming: Task field, ranking: reported IC50, descending order. Show the ranking through the labels, in the order asked for.
Outgoing: III, II, I
(III: 2270 nM, II: 13.5 nM, I: 2.55 nM)
